assaySystem: Melanocortin receptor 3 (Homo sapiens)
Sequence (P41968 whole entry): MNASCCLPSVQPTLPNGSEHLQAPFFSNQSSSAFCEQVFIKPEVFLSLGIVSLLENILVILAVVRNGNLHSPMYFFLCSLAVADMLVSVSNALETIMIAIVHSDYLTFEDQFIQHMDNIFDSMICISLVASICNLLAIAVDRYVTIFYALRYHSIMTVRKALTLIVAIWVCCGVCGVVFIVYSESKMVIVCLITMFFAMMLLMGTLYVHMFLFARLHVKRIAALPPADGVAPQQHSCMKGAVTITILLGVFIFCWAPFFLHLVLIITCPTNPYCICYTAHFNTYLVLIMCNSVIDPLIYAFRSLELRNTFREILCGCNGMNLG
testDetails: Agonist activity at human MC3R transfected in HEK293 cells
propertyMeasured: EC50 (nM)

# annotated cases, reported EC50 shown
# smilesNotation, experimentalResult
data = [
    ("CNC(=O)[C@H](Cc1ccc2ccccc2c1)NC(=O)[C@H](CCCN=C(N)N)NC(=O)[C@@H](Cc1ccccc1)NC(=O)[C@H](Cc1c[nH]cn1)NC(C)=O", 541),
    ("CC(=O)N[C@@H](CCC(N)=O)C(=O)N[C@H](Cc1ccccc1)C(=O)N1C[C@H](OCc2ccc3ccccc3c2)C[C@@H]1C(=O)NCCN=C(N)N", 563),
    ("CC(=O)N[C@@H](Cc1ccccc1)C(=O)N[C@H](Cc1ccccc1)C(=O)N1C[C@H](OCc2ccc3ccccc3c2)C[C@@H]1CCCN=C(N)N", 313),
    ("NC(N)=NCCC[C@H]1C[C@@H](OCc2ccc3ccccc3c2)CN1C(=O)[C@@H](Cc1ccccc1)NC(=O)CCc1ccccc1", 2050),
]

I: CC(=O)N[C@@H](Cc1cnc[nH]1)C(=O)N[C@H](Cc1ccccc1)C(=O)N1C[C@H](OCc2ccc3ccccc3c2)C[C@@H]1CCCN=C(N)N
II: CC(=O)N[C@@H](Cc1c[nH]cn1)C(=O)N[C@H](Cc1ccccc1)C(=O)N1C[C@H](OCc2ccc3ccccc3c2)C[C@H]1CCCN=C(N)N
Task item: Recorded EC50 values differ for I and II ; which one is higher? Pick one; state its label.
Reply: II
